- ASSAYED_SYSTEM: RIOK2 (Homo sapiens, UniProt Q9BVS4)
- Sequence (Q9BVS4 whole entry): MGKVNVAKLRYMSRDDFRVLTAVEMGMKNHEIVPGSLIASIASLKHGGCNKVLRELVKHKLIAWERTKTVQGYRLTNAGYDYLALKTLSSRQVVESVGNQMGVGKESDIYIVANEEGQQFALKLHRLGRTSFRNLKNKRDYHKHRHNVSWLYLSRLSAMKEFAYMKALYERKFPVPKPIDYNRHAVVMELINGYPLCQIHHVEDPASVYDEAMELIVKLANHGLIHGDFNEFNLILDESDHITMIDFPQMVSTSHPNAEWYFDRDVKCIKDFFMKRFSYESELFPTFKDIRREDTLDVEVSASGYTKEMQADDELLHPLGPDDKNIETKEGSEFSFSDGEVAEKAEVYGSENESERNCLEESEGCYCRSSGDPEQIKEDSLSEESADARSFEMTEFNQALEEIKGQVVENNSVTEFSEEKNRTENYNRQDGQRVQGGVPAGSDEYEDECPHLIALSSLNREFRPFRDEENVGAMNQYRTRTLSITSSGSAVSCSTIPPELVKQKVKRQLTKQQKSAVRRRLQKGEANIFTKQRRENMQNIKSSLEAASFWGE
- METHOD_NOTES: biochemical
MEASURED_PROPERTY: IC50

INSERT INTO measurements (compound, experimental_result) VALUES
  ('CN(C)CC(O)COc1ccc(Nc2ncc([N+](=O)[O-])c(Nc3ccccc3O)n2)cc1.O=C(O)C(F)(F)F (centres unmarked) [TCMDC-141399]', '> 20 µM');

INPUT: IC50 lookup needed for Cl.NCC1(c2nc(-c3ccc(Cl)c(O)c3)c(-c3ccncc3)[nH]2)CCCCC1 [TCMDC-141154] , thanks.
OUTPUT: > 20 µM

Origin of the recorded values: paper PMC4774911
